Form field: pIC50 (one value per entry).
- experimentalTarget: DCAF15 (Homo sapiens (Human))
- Sequence (Q66K64 whole entry): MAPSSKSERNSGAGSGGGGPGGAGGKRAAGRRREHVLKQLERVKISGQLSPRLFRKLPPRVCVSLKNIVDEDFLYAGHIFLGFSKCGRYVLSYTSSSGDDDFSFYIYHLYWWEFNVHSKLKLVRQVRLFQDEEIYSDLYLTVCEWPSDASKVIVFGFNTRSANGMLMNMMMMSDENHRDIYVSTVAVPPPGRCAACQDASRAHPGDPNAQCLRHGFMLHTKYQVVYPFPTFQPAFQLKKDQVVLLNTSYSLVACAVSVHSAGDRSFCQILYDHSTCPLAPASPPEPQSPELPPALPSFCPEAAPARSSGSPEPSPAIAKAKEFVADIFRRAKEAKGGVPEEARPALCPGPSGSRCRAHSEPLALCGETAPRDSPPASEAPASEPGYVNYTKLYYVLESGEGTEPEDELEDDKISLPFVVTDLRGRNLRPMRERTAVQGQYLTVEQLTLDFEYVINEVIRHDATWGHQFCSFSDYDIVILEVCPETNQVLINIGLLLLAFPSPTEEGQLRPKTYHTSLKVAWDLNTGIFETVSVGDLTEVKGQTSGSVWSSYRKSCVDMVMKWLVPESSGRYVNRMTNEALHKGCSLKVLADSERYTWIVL
- Sequence (Q16531 whole entry partner): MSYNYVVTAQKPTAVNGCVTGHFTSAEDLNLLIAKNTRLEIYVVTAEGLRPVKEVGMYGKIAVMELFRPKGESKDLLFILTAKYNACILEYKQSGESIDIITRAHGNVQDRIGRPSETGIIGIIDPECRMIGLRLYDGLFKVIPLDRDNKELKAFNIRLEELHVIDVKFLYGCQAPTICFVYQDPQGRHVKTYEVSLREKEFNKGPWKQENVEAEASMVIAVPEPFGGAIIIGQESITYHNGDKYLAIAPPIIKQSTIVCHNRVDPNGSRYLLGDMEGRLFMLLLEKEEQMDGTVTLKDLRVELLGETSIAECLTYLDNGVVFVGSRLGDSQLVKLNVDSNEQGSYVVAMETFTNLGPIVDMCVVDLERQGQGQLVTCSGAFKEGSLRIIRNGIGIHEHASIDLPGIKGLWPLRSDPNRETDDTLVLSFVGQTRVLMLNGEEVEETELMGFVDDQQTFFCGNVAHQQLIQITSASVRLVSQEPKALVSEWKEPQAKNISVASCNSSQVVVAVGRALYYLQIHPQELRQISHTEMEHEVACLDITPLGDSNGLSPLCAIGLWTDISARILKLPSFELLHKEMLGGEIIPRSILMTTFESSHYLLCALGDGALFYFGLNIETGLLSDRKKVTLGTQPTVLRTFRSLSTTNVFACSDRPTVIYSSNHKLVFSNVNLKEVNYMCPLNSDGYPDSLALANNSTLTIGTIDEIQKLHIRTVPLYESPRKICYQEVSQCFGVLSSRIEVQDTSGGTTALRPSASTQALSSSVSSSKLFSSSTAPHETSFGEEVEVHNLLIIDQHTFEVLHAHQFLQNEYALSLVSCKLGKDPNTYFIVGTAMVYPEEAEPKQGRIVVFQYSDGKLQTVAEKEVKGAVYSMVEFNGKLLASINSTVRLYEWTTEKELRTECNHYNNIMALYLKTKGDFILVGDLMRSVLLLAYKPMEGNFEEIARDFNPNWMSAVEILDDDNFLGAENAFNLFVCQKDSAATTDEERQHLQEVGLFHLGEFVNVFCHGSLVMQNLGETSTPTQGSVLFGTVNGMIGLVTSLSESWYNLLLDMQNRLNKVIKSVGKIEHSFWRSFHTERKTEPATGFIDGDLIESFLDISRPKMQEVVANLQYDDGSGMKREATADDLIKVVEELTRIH
- testMethodNotes: HTRF competition assay, binary interaction with DCAF15
- conditions: competition with Alexa Fluor 647 tracer
- Experimental: Example 8: Measurement of Binary Interaction Between Compounds and DCAF15 Using Homogeneous Time Resolved Fluorescence (HTRF) DCAF15 interactions with test compounds were monitored using HTRF competition assays (Cisbio, Bedford, MA). […] The final mixture was incubated for an hour at room temperature and spun down briefly before data collection at 615 nm and 666 nm using EnVision 2104 Multilabel Plate Reader (Perkin Elmer, Bedford, MA). […]
pIC50: −log10 of the molar value.

Answered cases to consult:
>  <smilesString>
O=C1NCCc2ccc(S(=O)(=O)Nc3ccc(Cl)c4c(Cl)c[nH]c34)cc21

>  <pIC50>
5.00 to 6.00

$$$$
>  <smilesString>
O=c1ccc2cc(S(=O)(=O)Nc3ccc(Cl)c4c(Cl)c[nH]c34)ccc2[nH]1

>  <pIC50>
5.00 to 6.00

$$$$
>  <smilesString>
O=C1OCCc2ccc(S(=O)(=O)Nc3ccc(Cl)c4c(Cl)c[nH]c34)cc21

>  <pIC50>
5.00 to 6.00

$$$$
>  <smilesString>
O=C1NCCOc2ccc(S(=O)(=O)Nc3ccc(Cl)c4c(Cl)c[nH]c34)cc21

>  <pIC50>
5.00 to 6.00

$$$$

Requested read-out pIC50, target or system DCAF15 (Homo sapiens (Human)), entry `O=S(=O)(Nc1ccc(Cl)c2c(Cl)c[nH]c12)c1ccc2c(c1)CCCC2`
< 4.00
